Attribute: IC50
system: KIT D816V (Homo sapiens, UniProt P10721, D816V)
Sequence (P10721 26-976 D816V): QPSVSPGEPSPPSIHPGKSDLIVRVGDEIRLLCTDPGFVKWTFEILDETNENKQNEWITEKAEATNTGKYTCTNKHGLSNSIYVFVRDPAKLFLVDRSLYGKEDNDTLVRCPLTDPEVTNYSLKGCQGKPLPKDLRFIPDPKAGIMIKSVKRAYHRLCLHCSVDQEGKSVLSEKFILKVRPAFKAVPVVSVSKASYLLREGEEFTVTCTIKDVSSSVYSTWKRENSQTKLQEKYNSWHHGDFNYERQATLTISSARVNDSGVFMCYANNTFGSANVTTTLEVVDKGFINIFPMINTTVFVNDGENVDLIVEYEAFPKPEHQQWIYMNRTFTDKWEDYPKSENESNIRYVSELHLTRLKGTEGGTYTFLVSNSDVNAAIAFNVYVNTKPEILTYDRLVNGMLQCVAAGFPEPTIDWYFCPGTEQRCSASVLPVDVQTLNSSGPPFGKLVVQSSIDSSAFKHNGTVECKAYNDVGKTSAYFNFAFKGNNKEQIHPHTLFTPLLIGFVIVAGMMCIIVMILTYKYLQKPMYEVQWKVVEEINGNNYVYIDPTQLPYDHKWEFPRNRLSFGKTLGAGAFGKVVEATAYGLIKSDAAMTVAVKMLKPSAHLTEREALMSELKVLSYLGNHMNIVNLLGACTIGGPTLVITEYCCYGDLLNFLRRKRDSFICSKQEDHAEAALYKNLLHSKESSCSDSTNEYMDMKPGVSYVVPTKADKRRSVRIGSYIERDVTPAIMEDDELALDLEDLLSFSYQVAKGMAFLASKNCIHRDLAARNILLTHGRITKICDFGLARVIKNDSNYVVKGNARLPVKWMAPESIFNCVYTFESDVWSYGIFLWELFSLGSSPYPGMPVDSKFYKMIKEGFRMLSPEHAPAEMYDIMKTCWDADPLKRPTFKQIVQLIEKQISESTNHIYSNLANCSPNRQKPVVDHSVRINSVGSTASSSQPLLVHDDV
procedure details: KIT (D816V) mutant biochemical enzymatic activity inhibition assay (EZReader 2 mobility shift) at APPKM for ATP
condition details: 0.3 nM enzyme, 20 μM ATP (APPKM), 1 μM Src tide, 25° C., 60 minutes; read-out: Kit D816V @ ATP Km IC50
Where a name gives a salt, the structure may show the parent alone.

C[C@](N)(c1ccc(F)cc1)c1cnc(C2=CCN(c3ncnn4cc(-c5cnn(CCO)c5)cc34)CC2)nc1 :: 0.31 to 1.4 nM

Exercise: # query: IC50 of entry C[C@](N)(c1ccc(F)cc1)c1cnc(N2CCN(c3ncnc4[nH]c(-c5cnn(C6COC6)c5)cc34)CC2)nc1
Key: ≤ 0.3 nM

Exercise: # query: IC50 of entry C[C@@H](O)Cn1cc(-c2cc3c(N4CCN(c5ncc([C@@](C)(N)c6ccc(F)cc6)cn5)CC4)ncnc3[nH]2)cn1
Key: 0.31 to 1.4 nM

Exercise: # query: IC50 of entry C[C@](N)(c1ccc(F)cc1)c1cnc(N2CCN(c3ncnc4[nH]c(-c5cnn(CCO)c5)cc34)CC2)nc1.Cl [Compound 2, hydrochloride]
Key: ≤ 0.3 nM

Exercise: # query: IC50 of entry C[C@](N)(c1ccc(F)cc1)c1cnc(N2CCN(c3ncnc4[nH]c(-c5cnn(CC6COC6)c5)cc34)CC2)nc1 [Compound 6, hydrochloride]
Key: 0.31 to 1.4 nM

Exercise: # query: IC50 of entry C[C@H](O)Cn1cc(-c2cc3c(N4CCN(c5ncc([C@@](C)(N)c6ccc(F)cc6)cn5)CC4)ncnc3[nH]2)cn1 [Compound 5, hydrochloride]
Key: 0.31 to 1.4 nM

====

procedure details: Brain penetration in rats: brain to plasma ratio (Kp,brain)
Type: in vivo
condition details: rat; Sprague-Dawley rats (3/compound), IV infusion 1 mg/kg/hr over 8 hours, plasma and brain homogenate at 24 hours, Cbrain/Cplasma, mean
experimental readout: Kp at 24 h
Give the figure only, with no unit attached.

C[C@](N)(c1ccc(F)cc1)c1cnc(C2=CCN(c3ncnn4cc(-c5cnn(CCO)c5)cc34)CC2)nc1 [Compound 1] :: 0.133

Field: next molecule
Exercise: # query: Kp at 24 h of entry C[C@](N)(c1ccc(F)cc1)c1cnc(N2CCN(c3ncnc4[nH]c(-c5cnn(CCO)c5)cc34)CC2)nc1.Cl [Compound 2]
Key: 0.045

====

procedure details: Unbound brain to plasma ratio (Kpuu,brain), from brain and plasma concentrations and equilibrium dialysis unbound fractions
Format: in vivo, Sprague-Dawley rats
condition details: Sprague-Dawley, brain homogenate / plasma (unbound), intravenous, 1 mg/kg/hr; rat; calculated from brain and plasma concentrations and fu,brain (brain homogenate equilibrium dialysis), mean
Attribute: Kp uu at 24 h
Give the figure only, with no unit attached.

Exercise: # query: Kp uu at 24 h of entry C[C@](N)(c1ccc(F)cc1)c1cnc(C2=CCN(c3ncnn4cc(-c5cnn(CCO)c5)cc34)CC2)nc1 [Compound 1]
Key: 0.017

Exercise: # query: Kp uu at 24 h of entry C[C@](N)(c1ccc(F)cc1)c1cnc(N2CCN(c3ncnc4[nH]c(-c5cnn(CCO)c5)cc34)CC2)nc1.Cl [Compound 2]
Key: 0.01

FYI, the data here is from patent US20240010652A1.
